Reference source: patent US7148229B2

measurement.target: recombinant human cytosolic PEPCK (GST-PEPCK) (Homo sapiens)
Sequence (P35558 1-622): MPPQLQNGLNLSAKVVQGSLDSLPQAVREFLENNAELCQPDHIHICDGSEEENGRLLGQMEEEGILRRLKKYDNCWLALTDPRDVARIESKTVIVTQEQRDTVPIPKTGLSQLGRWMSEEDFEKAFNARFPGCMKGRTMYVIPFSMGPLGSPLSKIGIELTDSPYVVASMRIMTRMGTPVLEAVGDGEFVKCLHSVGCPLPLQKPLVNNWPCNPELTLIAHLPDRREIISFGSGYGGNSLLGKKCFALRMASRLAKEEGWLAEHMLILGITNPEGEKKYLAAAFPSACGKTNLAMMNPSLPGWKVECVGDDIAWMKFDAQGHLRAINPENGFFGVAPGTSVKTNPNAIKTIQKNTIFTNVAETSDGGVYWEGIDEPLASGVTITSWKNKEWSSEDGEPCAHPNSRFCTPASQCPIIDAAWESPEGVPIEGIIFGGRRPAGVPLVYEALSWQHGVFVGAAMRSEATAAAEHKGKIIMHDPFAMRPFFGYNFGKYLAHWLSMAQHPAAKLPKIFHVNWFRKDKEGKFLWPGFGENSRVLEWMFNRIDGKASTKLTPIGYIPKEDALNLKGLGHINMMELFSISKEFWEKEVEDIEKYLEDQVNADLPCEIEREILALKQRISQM
test.details: PEPCK enzyme assay (coupled to pyruvate kinase / lactate dehydrogenase, absorbance at 340 nm)
test.settings: in vitro PEPCK enzymatic assay; GTP at 3 fold and OAA at 10 fold Km; final DMSO 10%; room temperature, twenty minutes
pIC50: −log10 of the molar value.
Classify by measured pIC50: 1 if it is equal to or exceeds 6, 0 if it is smaller.

molecule: Cn1cnc(S(=O)(=O)Nc2ccc(Cc3nc4c([nH]3)c(=O)n(Cc3ccccc3F)c(=O)n4CC3CC3)cc2)c1 [Example 14]
label.class: 1
--
molecule: CCCCn1c(=O)n(Cc2ccccc2F)c(=O)c2[nH]c(Cc3ccc(S(=O)(=O)Nc4cccnc4)cc3)nc21 [Example 30]
label.class: 0

# next molecule below
Decide: pIC50 of CCCCn1c(=O)n(Cc2ccccc2F)c(=O)c2[nH]c(Cc3ccc(S(=O)(=O)Nc4ncccn4)cc3)nc21 [Example 31] >= 6?
0
